Test system: PEX405 cells
Format: cell-based
Conditions: 10 µM, 3 days, PI positive cells (dead cells)
Structures can show the parent of a compound that is named as a salt.
Field 'label' (enum: Met / Not met). Set to Met when % PI+ cells is strictly under 9%; else Not met.

[[record]]
compound = "O=C(CCCCCCC(=O)Nc1ccc(CN[C@H](C(=O)OC2CCCC2)c2ccccc2)cc1)NO"
answer_label = "Not met"


Query string: Given "Nc1cc(F)ccc1NC(=O)/C=C/c1cnn(C/C=C/c2ccccc2)c1" , is recorded % PI+ cells strictly lower than 9%?
Result string: Met

Query string: Here is the next compound: CN(C)Cc1ccc(S(=O)(=O)n2ccc(/C=C/C(=O)NO)c2)cc1 [Resminostat (hydrochloride), Resminostat]
Result string: Met

Query string: Here is the next compound: "O=C(CCc1ccc(CN[C@H](C(=O)OC2CCCC2)C2CCCCC2)cn1)NO"
Result string: Not met

Query string: Here is the next compound: O=C(NO)c1ccc(CNC(=O)c2[nH]c(-c3ccc(O)cc3)cc2-c2ccoc2)cc1.O=C(O)C(F)(F)F [QTX125 (TFA)]
Result string: Not met

Query string: Here is the next compound: "Nc1ccccc1NC(=O)c1ccc(CCCC(=O)Nc2ccc([C@@H]3C[C@H]3N)cc2)cc1"
Result string: Not met

Query string: Here is the next compound: "Nc1ccccc1NC(=O)c1cnccn1"
Result string: Met

Query string: Here is the next compound: "CC(/C=C/C(=O)NO)=C\[C@@H](C)C(=O)c1ccc(N(C)C)cc1"
Result string: Not met

Query string: Here is the next compound: "CC(C)(CNC(=O)c1cccc(-c2noc(C(F)(F)F)n2)c1)c1coc(-c2ccccc2)n1"
Result string: Met

Query string: Here is the next compound: "O=C(/C=C/c1cccc(S(=O)(=O)Nc2ccccc2)c1)NO"
Result string: Not met

Query string: Here is the next compound: "CCCCc1nc2cc(/C=C/C(=O)NO)ccc2n1CCN(CC)CC"
Result string: Not met

Query string: Here is the next compound: "CCCCNNC(=O)c1ccc(Br)cc1"
Result string: Met

Query string: Here is the next compound: "Nc1ccccc1NC(=O)CCCCCC(=O)Nc1ccccc1"
Result string: Met

Query string: Here is the next compound: "Nc1ccc(-c2cccs2)cc1NC(=O)c1ccc2nc(N3CCNCC3)ccc2c1"
Result string: Not met

Query string: Here is the next compound: "Nc1ccccc1NC(=O)c1ccc(Cn2cc(-c3ccc(C(=O)NCc4cccnc4)cc3)nn2)cc1"
Result string: Met

Query string: Here is the next compound: "O=C(CCCCCCNC(=O)c1cnc(N(c2ccccc2)c2ccccc2Cl)nc1)NO"
Result string: Met

Query string: Here is the next compound: "O=C(NO)c1ccc(CNc2cccc3cccnc23)cc1"
Result string: Met

Query string: Here is the next compound: "Cn1cc(CNCC2CCN(c3ncc(C(=O)NO)cn3)CC2)c2ccccc21"
Result string: Not met
